List of pIC50 values.
ASSAYED SYSTEM: 5-HT1A (Rattus norvegicus, UniProt P19327)
Construct: the whole brain with the exception of the brainstem and cerebellum was rapidly removed; from tissue
Sequence (P19327 whole entry): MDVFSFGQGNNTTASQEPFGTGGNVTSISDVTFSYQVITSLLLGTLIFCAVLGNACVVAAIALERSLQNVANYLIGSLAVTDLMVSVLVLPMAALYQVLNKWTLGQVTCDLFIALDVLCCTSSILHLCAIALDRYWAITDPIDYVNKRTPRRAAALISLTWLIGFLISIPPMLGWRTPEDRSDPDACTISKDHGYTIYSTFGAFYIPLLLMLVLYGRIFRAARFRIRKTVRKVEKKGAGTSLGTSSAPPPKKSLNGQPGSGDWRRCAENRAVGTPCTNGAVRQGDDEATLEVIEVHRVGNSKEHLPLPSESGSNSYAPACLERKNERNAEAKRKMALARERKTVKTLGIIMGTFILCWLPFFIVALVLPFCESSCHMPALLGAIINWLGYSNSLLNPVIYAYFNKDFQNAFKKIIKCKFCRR
ASSAY COMMENT: 5-HT1A radioligand binding ([3H]-8-OH-DPAT)
Set-up: species or system rat (male Sprague-Dawley)
CONDITION DESCRIPTION: [3H]-8-OH-DPAT, rat cortex; read-out: in vitro binding IC50, 5HT1A
Description: ^b Serotonin 5HT1A ([^3 H]-8OH-DPAT, agonist) rat cortex. 5-HT1A radioligand binding. […] The radioactivity of the filters was measured in a liquid scintillation counter (efficiency 41%) in 5 mL Picofluor®. Specific binding (70-75% of total binding) was defined as the radioactivity displaced by 10 μM 5-HT. IC50 values were calculated by semi-log plot and linear regression analysis.
Entry type: numeric. Quantity: pIC50, the -log10 of concentration in molar units.

Recorded results for 3 molecules are shown here.
{"MOLECULE": "CCN1CCC[C@@H](c2cccc(OS(=O)(=O)C(F)(F)F)c2)C1 [S-(-)-14]", "ASSAYED SYSTEM": "5-HT1A (Rattus norvegicus, UniProt P19327)", "pIC50": 5.89}
{"MOLECULE": "CCCN1CCC[C@@H](c2cccc(OC)c2)C1 [S-i]", "ASSAYED SYSTEM": "5-HT1A (Rattus norvegicus, UniProt P19327)", "pIC50": 5.35}
{"MOLECULE": "CN1CCC[C@@H](c2cccc(C#N)c2)C1 [S-(+)-32]", "ASSAYED SYSTEM": "5-HT1A (Rattus norvegicus, UniProt P19327)", "pIC50": 4.85}

Entry under test: CCCN1CCC[C@H](c2cccc(C#N)c2)C1 [R-(+)-34] . Its pIC50 was 4.85

Entry under test: CCN1CCC[C@@H](c2cccc(C#N)c2)C1 [S-(-)-33] . Its pIC50 was 4.66

Entry under test: C=Cc1cccc([C@@H]2CCCN(CCC)C2)c1 [Compound S-41, S-3-(3-Vinylphenyl-N-n-propyl)piperidine] . Its pIC50 was 6.34

Entry under test: CCCN1CCC[C@@H](c2cccc(C(=O)OC)c2)C1 [Compound S-25] . Its pIC50 was 5.70

Entry under test: CC(C)N1CCC[C@@H](c2cccc(C#N)c2)C1 [Compound S-35] . Its pIC50 was 4.80

Entry under test: CCCN1CCC[C@@H](c2cccc(OS(=O)(=O)C(F)(F)F)c2)C1 [S-(-)-15] . Its pIC50 was 5.64
